Reference source: paper PMC10709440

TARGET_ENTITY: Drosophila OR85b (Drosophila melanogaster)
Construct: expressed in transfected cells
Sequence (Q9VHQ7 whole entry, one chain of several): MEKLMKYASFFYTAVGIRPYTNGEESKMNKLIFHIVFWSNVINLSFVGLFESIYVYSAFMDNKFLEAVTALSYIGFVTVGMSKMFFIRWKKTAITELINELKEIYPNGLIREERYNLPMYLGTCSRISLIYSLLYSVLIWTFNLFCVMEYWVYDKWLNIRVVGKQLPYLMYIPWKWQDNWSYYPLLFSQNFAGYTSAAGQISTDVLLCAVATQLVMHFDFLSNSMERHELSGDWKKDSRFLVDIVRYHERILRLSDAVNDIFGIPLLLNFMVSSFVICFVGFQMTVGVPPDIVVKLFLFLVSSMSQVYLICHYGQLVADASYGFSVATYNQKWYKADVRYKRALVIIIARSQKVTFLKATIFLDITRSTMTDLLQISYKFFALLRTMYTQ
ASSAY_OVERVIEW: Calcium ion fluorescence (GCaMP6) assay, OR85b stable HEK293 cell line
Assay type: cell-based
TEST_CONDITIONS: EC50, FITTED AVERAGE CURVE, fit to the average curve

STRUCTURE_NOTATION | EC50 / µM
CCCCCC(C)=O | 72.2

* * *

TARGET_ENTITY: Drosophila OR10a (Drosophila melanogaster)
Construct: expressed in transfected cells
ASSAY_OVERVIEW: Calcium ion fluorescence (GCaMP6) assay, OR10a stable HEK293 cell line
Assay type: cell-based
TEST_CONDITIONS: OR10a cell line, VOC concentration 10 μM
Recorded OR10a response (VUAA1-normalized) at 10 μM for the following compounds
MEASURED_PROPERTY: OR10a response (VUAA1-normalized) at 10 μM

COMPOUND | OBSERVED_VALUE
CCCCCCCCCCC | 0.00
COC(=O)c1ccccc1O [methyl salicylate] | 0.55
CC1=CCC23CC1C(C)(C)C2CCC3C (centres unmarked) | 0.00
CCCCCCCCCCCCCC | 0.00
C=C1CCC2(C(C)C)CC12 (centres unmarked) | 0.00

* * *

Recorded OR71a response (VUAA1-normalized response) for the following molecules
TARGET_ENTITY: Drosophila OR71a (Drosophila melanogaster)
Construct: expressed in transfected cells
Sequence (Q9VUK5 whole entry, one chain of several): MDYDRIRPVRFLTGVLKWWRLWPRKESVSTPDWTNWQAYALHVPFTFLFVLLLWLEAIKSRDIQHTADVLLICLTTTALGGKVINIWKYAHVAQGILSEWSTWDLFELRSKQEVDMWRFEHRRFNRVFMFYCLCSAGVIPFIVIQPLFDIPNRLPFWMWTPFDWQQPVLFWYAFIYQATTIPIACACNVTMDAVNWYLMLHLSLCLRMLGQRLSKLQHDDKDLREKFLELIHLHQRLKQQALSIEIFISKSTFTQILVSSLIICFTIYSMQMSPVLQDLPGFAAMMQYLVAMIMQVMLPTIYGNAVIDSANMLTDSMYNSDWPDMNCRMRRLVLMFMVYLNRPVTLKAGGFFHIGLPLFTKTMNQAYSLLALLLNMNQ
ASSAY_OVERVIEW: Calcium ion fluorescence (GCaMP6) assay, OR71a stable HEK293 cell line
Format: cell-based
TEST_CONDITIONS: VOC concentration 10 μM
MEASURED_PROPERTY: OR71a response (VUAA1-normalized response)

MOLECULE | OBSERVED_VALUE
C=C(C)[C@H]1CC=C(C)CC1 [(R)-(+)-limonene] | 0.00
CC1=CCC[C@@]2(C)[C@@H]3CC[C@]12CC3(C)C [(−)-α-neoclovene] | 0.00
C=C1[C@H]2CC[C@@H]3[C@H]2C(C)(C)CCC[C@]13C [(+)-longifolene] | 0.00
C=C(C)C1CCC2(C)OC2C1 (single isomer, unassigned; (+)) [(+)-limonene oxide] | 0.00
CC(C)=CCC/C(C)=C/CC/C(C)=C/CO | 0.00
CC/C=C\CCO | 0.00
C=C(C)[C@H]1CC=C(C)CC1 [limonene] | 0.00

* * *

Recorded activity at 100 µM for the following compounds
TARGET_ENTITY: Drosophila OR47a (Drosophila melanogaster, UniProt P81921)
Construct: expressed in transfected cells
Sequence (P81921 whole entry, one chain of several): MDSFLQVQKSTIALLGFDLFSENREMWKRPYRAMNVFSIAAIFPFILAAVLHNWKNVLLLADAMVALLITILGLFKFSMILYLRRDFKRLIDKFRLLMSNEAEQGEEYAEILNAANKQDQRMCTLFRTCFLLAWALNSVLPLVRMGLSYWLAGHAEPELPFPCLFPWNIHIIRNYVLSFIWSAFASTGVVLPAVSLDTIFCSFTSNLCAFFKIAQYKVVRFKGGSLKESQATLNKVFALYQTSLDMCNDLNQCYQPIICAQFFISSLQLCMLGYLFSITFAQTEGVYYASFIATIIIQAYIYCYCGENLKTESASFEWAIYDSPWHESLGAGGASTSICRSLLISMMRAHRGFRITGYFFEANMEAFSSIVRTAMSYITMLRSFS
ASSAY_OVERVIEW: cell-based
Parameters: GCaMP6 calcium fluorescence in stable HEK293 OR+ORCO lines; peak dF normalised to 50 uM VUAA1 (=1)
TEST_CONDITIONS: HEK293; relative to 50 uM VUAA1 response; below 0.05 set to 0; read-out: % activation

COMPOUND | U | activity at 100 µM
C=C1CC[C@@]23C[C@@H]1C(C)(C)[C@@H]2CC[C@H]3C [(+)-beta-cedrene] | % | 0
C=C1[C@H]2CC[C@@H]3[C@H]2C(C)(C)CCC[C@]13C [(+)-longifolene] | % | 0
C=C(C)[C@H]1CC=C(C)CC1 [(R)-(+)-limonene] | % | 0
OCCc1ccccc1 [phenethyl alcohol] | % | 5.7
COC(=O)c1ccccc1 [methyl benzoate] | % | 5.95
C=C(C)C1CCC2(C)OC2C1 (single isomer, unassigned; (+)) [(+)-limonene oxide] | % | 0

* * *

TARGET_ENTITY: Drosophila OR10a (Drosophila melanogaster, UniProt Q9VYZ1)
Construct: expressed in transfected cells
Sequence (Q9VYZ1 whole entry, one chain of several): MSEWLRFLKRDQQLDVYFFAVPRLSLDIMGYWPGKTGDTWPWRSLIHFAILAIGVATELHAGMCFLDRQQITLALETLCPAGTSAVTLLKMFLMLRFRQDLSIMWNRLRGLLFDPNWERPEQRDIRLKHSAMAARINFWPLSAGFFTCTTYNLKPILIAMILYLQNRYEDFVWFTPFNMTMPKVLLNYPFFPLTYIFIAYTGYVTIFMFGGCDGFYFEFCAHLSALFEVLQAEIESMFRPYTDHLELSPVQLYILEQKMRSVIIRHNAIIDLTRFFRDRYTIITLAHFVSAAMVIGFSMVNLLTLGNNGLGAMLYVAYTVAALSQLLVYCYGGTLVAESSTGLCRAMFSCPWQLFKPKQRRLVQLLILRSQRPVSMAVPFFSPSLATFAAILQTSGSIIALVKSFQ
ASSAY_OVERVIEW: Calcium ion fluorescence (GCaMP6) assay, OR10a stable HEK293 cell line
Assay type: cell-based
TEST_CONDITIONS: HEK293, 10 μM VOC; 50 μM VUAA1 = 1; responses not exceeding 0.05 considered 0; read-out: OR10a Average response (VUAA1-normalized)
Everything with activation at 10 µM lower than 7% is criterion not met; everything else, including exactly 7%, is criterion met.

MOLECULE | CATEGORY_LABEL
CC1=CCC23CC1C(C)(C)C2CCC3C (centres unmarked) | criterion not met
CC(=O)OCCC(C)C [isopentyl acetate] | criterion met
CCCCCCCCC(CO)CCCCCC (centres unmarked) | criterion met
CCCCCCCCC=O | criterion not met
CCCCCCCCCCC | criterion not met
CCCC(O)CC (centres unmarked) | criterion not met
COC(=O)c1ccccc1O [methyl salicylate] | criterion met

* * *

TARGET_ENTITY: Drosophila OR13a (Drosophila melanogaster, UniProt Q9VXL0)
Construct: expressed in transfected cells
Sequence (Q9VXL0 whole entry, one chain of several): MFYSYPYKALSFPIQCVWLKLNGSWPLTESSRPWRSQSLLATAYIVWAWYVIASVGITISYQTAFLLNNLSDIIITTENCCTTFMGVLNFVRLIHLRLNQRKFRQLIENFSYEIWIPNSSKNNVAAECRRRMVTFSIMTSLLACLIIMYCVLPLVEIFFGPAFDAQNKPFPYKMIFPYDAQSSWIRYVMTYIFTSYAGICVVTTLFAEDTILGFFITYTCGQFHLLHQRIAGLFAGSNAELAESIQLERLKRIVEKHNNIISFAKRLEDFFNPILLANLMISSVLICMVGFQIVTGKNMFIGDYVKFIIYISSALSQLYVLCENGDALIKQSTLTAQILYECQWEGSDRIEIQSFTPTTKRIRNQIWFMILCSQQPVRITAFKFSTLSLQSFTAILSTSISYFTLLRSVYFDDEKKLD
ASSAY_OVERVIEW: Calcium ion fluorescence (GCaMP6) assay, OR13a stable HEK293 cell line
Type: cell-based
TEST_CONDITIONS: EC50, AVERAGE of replicate fits, the 12th table; arithmetic average, N 5
Protocol: These VUAA1 normalized ∆F values were used to compare the different receptors and ligands. The concentration-dependent effect of the reference ligands on their cognate cell lines was examined in more detail. Twelve different ligand concentrations were measured on each cell line in an overall 0.01 μM to 100 μM concentration range with 5 repetitions with three technical replicates each time. […]

MOLECULE | U | EC50
C=CC(O)CCCCC (stereo not shown) | nM | 1630

* * *

TARGET_ENTITY: Drosophila OR49b (Drosophila melanogaster)
Construct: expressed in transfected cells
Sequence (Q9V6H2 1-375): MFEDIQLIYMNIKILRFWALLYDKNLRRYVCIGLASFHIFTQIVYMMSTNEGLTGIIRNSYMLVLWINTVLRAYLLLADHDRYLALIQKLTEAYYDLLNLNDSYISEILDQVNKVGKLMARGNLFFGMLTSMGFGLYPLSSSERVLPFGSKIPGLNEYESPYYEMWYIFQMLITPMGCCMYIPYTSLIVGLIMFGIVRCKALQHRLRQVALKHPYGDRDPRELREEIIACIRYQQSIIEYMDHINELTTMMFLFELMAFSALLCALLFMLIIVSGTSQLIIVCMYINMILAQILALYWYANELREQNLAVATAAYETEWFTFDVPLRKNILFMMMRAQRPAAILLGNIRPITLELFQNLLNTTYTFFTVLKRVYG
Sequence (Q9VNB5 1-486 partner): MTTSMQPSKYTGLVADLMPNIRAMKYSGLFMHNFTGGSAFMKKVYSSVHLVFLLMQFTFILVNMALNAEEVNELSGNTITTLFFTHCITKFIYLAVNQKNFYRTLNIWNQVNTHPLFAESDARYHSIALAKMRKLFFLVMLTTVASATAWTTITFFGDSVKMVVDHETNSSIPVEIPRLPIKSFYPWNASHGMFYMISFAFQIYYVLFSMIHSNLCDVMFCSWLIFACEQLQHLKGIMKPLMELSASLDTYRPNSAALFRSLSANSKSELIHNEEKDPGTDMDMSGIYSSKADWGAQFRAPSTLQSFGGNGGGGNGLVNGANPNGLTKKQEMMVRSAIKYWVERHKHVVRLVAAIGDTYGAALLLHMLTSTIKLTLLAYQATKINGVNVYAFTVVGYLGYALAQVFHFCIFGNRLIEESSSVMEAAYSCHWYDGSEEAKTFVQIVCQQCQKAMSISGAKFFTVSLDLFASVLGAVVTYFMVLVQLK
ASSAY_OVERVIEW: cell-based
TEST_CONDITIONS: EC50, OR49b cell line; fitted Hill equation, Hill coefficient constrained to 1, maximal response max 1

STRUCTURE_NOTATION | EC50 (µM)
Cc1ccccc1O | 13.9

* * *

Recorded DF norm AVERAGE OR85b for the following compounds
TARGET_ENTITY: Drosophila OR85b (Drosophila melanogaster)
Construct: expressed in transfected cells
ASSAY_OVERVIEW: Calcium ion fluorescence (GCaMP6) assay, OR85b stable HEK293 cell line
Assay type: cell-based
TEST_CONDITIONS: concentration 10; normalized fluorescence change, values below 0.05 threshold given as 0
Experimental: These VUAA1 normalized ∆F values were used to compare the different receptors and ligands. The concentration-dependent effect of the reference ligands on their cognate cell lines was examined in more detail. Twelve different ligand concentrations were measured on each cell line in an overall 0.01 μM to 100 μM concentration range with 5 repetitions with three technical replicates each time. […]
MEASURED_PROPERTY: DF norm AVERAGE OR85b

COMPOUND | OBSERVED_VALUE
C=C(C)[C@H]1CC=C(C)CC1 [(R)-(+)-limonene] | 0
CCCC(O)CC (stereo not shown) | 0.09908
C=C1CC/C=C(\C)CC[C@@H]2[C@@H]1CC2(C)C [(-)-trans-caryophyllene] | 0
C=CC(O)CCCCC (stereo not shown) | 0
CCCCCO | 0
CCCCC(C)O (stereo not shown) | 0
COc1cccc(OC)c1 | 0
Cc1cccc(O)c1 | 0
C=C1CC[C@H]2O[C@]2(C)CC[C@@H]2[C@@H]1CC2(C)C [(-)-caryophyllene oxide] | 0
C=CC(O)C/C=C\CC (stereo not shown) | 0.08739
